# system: SARS-CoV-2 nucleocapsid protein (Np);DDX1 (SARS-CoV-2;Homo sapiens, UniProt P0DTC9;Q92499 1-419;1-740, |)
# method_summary: EMSA; Np titrated with fixed DDX1
# particulars: protein: recombinant;recombinant; tags: His (pET30a(+), Ni-NTA purified);pET30a(+) vector; label: 5'-FAM on the 18 mer

- binder: "18/38 mer FAM partially dsRNA (dsRNA) RNA 1: AUGAAGGUUUGAGUUGAGUGGAGAUAGUGGAGGGUAGU RNA 2: CUCAACUCAAACCUUCAU"
  Kd [nM]: 40
